Values compiled from patent US20230183179A1.

Molecular target: His6 tagged human recombinant FABP4 (Homo sapiens, UniProt P15090)
Construct: purchased Cayman Chemicals 10009549
Sequence (P15090 whole entry): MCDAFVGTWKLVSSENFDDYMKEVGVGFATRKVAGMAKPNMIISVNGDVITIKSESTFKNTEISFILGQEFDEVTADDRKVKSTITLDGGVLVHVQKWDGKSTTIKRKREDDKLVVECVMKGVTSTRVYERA
Assay: FABP4 TR-FRET assay: displacement of fluorescent fatty acid BODIPY FL C12
Conditions: inhibition of BODIPY FL C12 binding to His6-FABP4; 1.2 μL of 1.085 mM compound in DMSO per well; triplicates, mean percent inhibition
Think of 80% as a floor: if inhibition at 1085 µM (stock) stands on it or above, it is y; beneath it, n.

1. CCCCCCCCc1ccc2nc(N(CCC)CC(=O)O)cc(-c3ccc(F)cc3)c2c1; n
2. CCCCCCCCc1ccc2nc(N(C)CC(=O)O)cc(-c3ccccc3)c2c1; y
3. CCCCCCc1ccc2nc(N3CCOC(C(=O)O)C3)cc(-c3ccccc3)c2c1 (stereo not drawn); n
4. CN(CC(=O)O)c1cc(-c2ccccc2)c2cc(CCc3nc4ccccc4o3)ccc2n1; n
5. CCCCc1ccc2nc(N(C)C(C)CC(=O)O)cc(-c3ccccc3)c2c1 (stereo not drawn); y

Dear colleague, could you confirm whether CN(CC(=O)O)c1cc(-c2ccccc2)c2cc(CCc3ccncc3)ccc2n1 has inhibition at 1085 µM (stock) at or above 80%?
n

Dear colleague, could you confirm whether N#Cc1cccc(-c2cc(OCC(=O)O)nc3ccc(Br)cc23)c1 has inhibition at 1085 µM (stock) at or above 80%?
n

Dear colleague, could you confirm whether O=C(O)C1CCCN1c1cc(-c2ccccc2)c2cc(Cl)ccc2n1 (stereo not drawn) has inhibition at 1085 µM (stock) at or above 80%?
y

Dear colleague, could you confirm whether CCCCc1ccc2nc(N(C)CC(=O)O)cc(-c3cccc(C)c3)c2c1 has inhibition at 1085 µM (stock) at or above 80%?
y

Dear colleague, could you confirm whether Cc1ccccc1CCc1ccc2nc(N(C)CC(=O)O)cc(-c3ccccc3)c2c1 has inhibition at 1085 µM (stock) at or above 80%?
n

Dear colleague, could you confirm whether O=C1NC(=O)C(Cc2cc(-c3ccccc3)c3cc(CCc4ccccc4)ccc3n2)S1 (stereo not drawn) has inhibition at 1085 µM (stock) at or above 80%?
n

Dear colleague, could you confirm whether CCCCCCC1CCc2nc(N(C)CC(=O)O)cc(-c3ccccc3)c2C1 (stereo not drawn) has inhibition at 1085 µM (stock) at or above 80%?
n
